Listed here: molecules with reported Ki for human factor Xa (Homo sapiens, UniProt P00742).

MOLECULE	OUTPUT UNIT	Ki
CC1CC(=O)NN=C1c1ccc(NC(=O)c2nn(Cc3cc(-c4ccc(Cl)s4)on3)c3ccccc23)cc1 (stereo not shown) [Example 43]	nM	730
O=C(Cn1nc(C(=O)Nc2ccc(N3CCOCC3=O)cc2)c2ccccc21)Nc1ccc(Cl)cn1 [Example 53]	nM	240
CC(C)N1CCC(NC(=O)c2nn(Cc3cc(-c4ccc(Cl)s4)on3)c3ccc(C(=O)NCC(N)=O)cc23)CC1 [Example 21]	nM	33
CC(C)N1CCC(NC(=O)c2nn(Cc3cc(-c4ccc(Cl)s4)on3)c3ccc(C(=O)NCCN4CCNC4=O)cc23)CC1 [Example 23]	nM	33
O=C(Nc1ccc(C(=O)N2CCCC2)cc1)c1nn(Cc2cc(-c3ccc(Cl)s3)on2)c2ccccc12 [Example 34]	nM	120
CC(C)N1CCC(NC(=O)c2nn(Cc3cc(-c4ccc(Cl)s4)on3)c3ccc(C(=O)NCC(F)F)cc23)CC1 [Example 20]	nM	47
CC(C)N1CCC(NC(=O)c2nn(Cc3cc(-c4ccc(Cl)s4)on3)c3ccc(C(=O)N(CCO)CCO)cc23)CC1 [Example 17]	nM	30
